Assay setup: 323.15 K; 100 kPa; Liquid
Measured parameter: mass density (kg/m3)
Respond with the bare value in kg/m3.

Some compounds with recorded mass density:
                                   compound  assay_result
0  CCCCCCCCCCCCCC[P+](CCCCCC)(CCCCCC)CCCCCC.[Br-] [tetradecyltrihexylphosphonium bromide]         937.8
1  CCCCCCCCCCCCCC[P+](CCCCCC)(CCCCCC)CCCCCC.O=S(=O)([N-]S(=O)(=O)C(F)(F)F)C(F)(F)F          1048

Query: mass density; subject: CCCCCCCCCCCCCC[P+](CCCCCC)(CCCCCC)CCCCCC.[Cl-] [trihexyl(tetradecyl)phosphonium chloride]
874.8

Query: mass density; subject: CCCCCCCCCCCCCC[P+](CCCCCC)(CCCCCC)CCCCCC.CS(=O)(=O)[O-] [trihexyltetradecylphosphonium methanesulfonate]
913.4

Query: mass density; subject: CCCCCCCCCCCCCC[P+](CCCCCC)(CCCCCC)CCCCCC.N#C[N-]C#N [tetradecyl(trihexyl)phosphonium dicyanamide]
884.3

###

Below, each of the compounds is paired with its reported mass density value.
Assay setup: 313.15 K; 40000 kPa; Liquid
± gives the expanded uncertainty stated by the source.
Could you give the number and then its unit, please?

>>> df
                                   compound       assay_result
0  CCCCCCCCCCCCCC[P+](CCCCCC)(CCCCCC)CCCCCC.[Cl-] [trihexyl(tetradecyl)phosphonium chloride]  899.9 ± 1.9 kg/m3
1  CCCCCCCCCCCCCC[P+](CCCCCC)(CCCCCC)CCCCCC.CS(=O)(=O)[O-] [trihexyltetradecylphosphonium methanesulfonate]  940.8 ± 1.4 kg/m3
2  CCCCCCCCCCCCCC[P+](CCCCCC)(CCCCCC)CCCCCC.N#C[N-]C#N [tetradecyl(trihexyl)phosphonium dicyanamide]  908.5 ± 1.8 kg/m3

Query: mass density; subject: CCCCCCCCCCCCCC[P+](CCCCCC)(CCCCCC)CCCCCC.[Br-] [tetradecyltrihexylphosphonium bromide]
965.5 ± 1 kg/m3

Query: mass density; subject: `CCCCCCCCCCCCCC[P+](CCCCCC)(CCCCCC)CCCCCC.O=S(=O)([N-]S(=O)(=O)C(F)(F)F)C(F)(F)F`
1078.8 ± 1.7 kg/m3

###

Assay setup: 313.15 K; 10000 kPa; Liquid
Measured parameter: mass density (kg/m3)
Respond with the bare value in kg/m3.

>>> df
                                   compound  measured_parameter  units_of_measure  assay_result
0  CCCCCCCCCCCCCC[P+](CCCCCC)(CCCCCC)CCCCCC.CS(=O)(=O)[O-] [trihexyltetradecylphosphonium methanesulfonate]        mass density             kg/m3         925.3
1  CCCCCCCCCCCCCC[P+](CCCCCC)(CCCCCC)CCCCCC.N#C[N-]C#N [tetradecyl(trihexyl)phosphonium dicyanamide]        mass density             kg/m3         895.1
2  CCCCCCCCCCCCCC[P+](CCCCCC)(CCCCCC)CCCCCC.O=S(=O)([N-]S(=O)(=O)C(F)(F)F)C(F)(F)F        mass density             kg/m3        1061.7

Query: mass density; subject: CCCCCCCCCCCCCC[P+](CCCCCC)(CCCCCC)CCCCCC.[Br-] [tetradecyltrihexylphosphonium bromide]
949.8

Query: mass density; subject: CCCCCCCCCCCCCC[P+](CCCCCC)(CCCCCC)CCCCCC.[Cl-] [trihexyl(tetradecyl)phosphonium chloride]
885.9

meta.source: the NIST ThermoML archive (doi:10.1021/je101232g)
